FYI, the data here is from paper PMC10525132.

# ASSAY_SYSTEM: mushroom tyrosinase (mTYR) (Agaricus bisporus)
# Construct: purchased Sigma-Aldrich (Milan, Italy)
# EXPERIMENT_SUMMARY: Inhibition of mushroom tyrosinase monophenolase reaction (substrate L-tyrosine, dopachrome at 475 nm)
# Format: biochemical
# ASSAY_CONDITIONS: IC50 Monophenolase, 30 °C, pH 6.8, L-tyrosine 0.50 mM
Consider the following compounds; for each one, report its pIC50.
# pIC50 is unitless: minus log10 of the molar concentration; print number only

## Input # lookup: pIC50 of `COc1cc(/C=C/C(=O)c2ccc(O)cc2O)ccc1O`
## Output 5.06

## Input For `O=C(/C=C/c1ccc(O)c(O)c1)c1ccc(O)cc1O` , what is its reported pIC50?
## Output 4.91

====

# ASSAY_SYSTEM: mushroom tyrosinase (mTYR) (Agaricus bisporus)
# Construct: purchased Sigma-Aldrich (Milan, Italy)
# EXPERIMENT_SUMMARY: Inhibition of mushroom tyrosinase monophenolase reaction (substrate L-tyrosine, dopachrome at 475 nm)
# Type: biochemical
# ASSAY_CONDITIONS: IC50 Monophenolase, 30 °C, pH 6.8, L-tyrosine 0.125 mM
# Protocol: Measurements were performed at 30 °C in phosphate buffer (50 mM, pH 6.8) in polystyrene low-volume cuvettes (1.5 mL, l = 1 cm) with a double-beam spectrophotometer. […] The reaction was monitored at 475 nm for up to 60 min, following dopachrome formation. Initial velocity (V = ΔA/Δmin) was converted in μM/min according to Lambert–Beer law using the molar extinction coefficient ε = 3700 M^−1cm^−1 for dopachrome at λmax = 475 nm. […]
PARAMETER_MEASURED: IC50
Please report the result as a number followed by the unit.

## Input May I ask what IC50 has been recorded for `COc1cc(/C=C/C(=O)c2ccc(O)cc2O)ccc1O` ?
## Output 4.58 µM

## Input Entry under review: `O=C(/C=C/c1ccc(O)c(O)c1)c1ccc(O)cc1O` . Reported IC50?
## Output 35.6 µM

====

Answer each item with its documented pKi.
# ASSAY_SYSTEM: mushroom tyrosinase (mTYR) (Agaricus bisporus)
# Construct: purchased Sigma-Aldrich (Milan, Italy)
# EXPERIMENT_SUMMARY: Inhibition of mushroom tyrosinase diphenolase reaction (substrate L-dopa, dopachrome at 475 nm)
# Assay type: biochemical
# ASSAY_CONDITIONS: KI Competitive, diphenolase, inhibitor 5.6 µM
Just so you know, pKi here is -log10 of the concentration in molar units; reply with that number alone.

## Input What measured pKi goes with `O=C(/C=C/c1ccc(O)c(O)c1)c1ccc(O)cc1O` ?
## Output 5.51

## Input Which pKi reading was recorded for the compound `COc1cc(/C=C/C(=O)c2ccc(O)cc2O)ccc1O` ?
## Output 5.33

====

# ASSAY_SYSTEM: mushroom tyrosinase (mTYR) (Agaricus bisporus, UniProt C7FF04)
# Construct: purchased Sigma-Aldrich (Milan, Italy)
# Sequence (C7FF04 1-392): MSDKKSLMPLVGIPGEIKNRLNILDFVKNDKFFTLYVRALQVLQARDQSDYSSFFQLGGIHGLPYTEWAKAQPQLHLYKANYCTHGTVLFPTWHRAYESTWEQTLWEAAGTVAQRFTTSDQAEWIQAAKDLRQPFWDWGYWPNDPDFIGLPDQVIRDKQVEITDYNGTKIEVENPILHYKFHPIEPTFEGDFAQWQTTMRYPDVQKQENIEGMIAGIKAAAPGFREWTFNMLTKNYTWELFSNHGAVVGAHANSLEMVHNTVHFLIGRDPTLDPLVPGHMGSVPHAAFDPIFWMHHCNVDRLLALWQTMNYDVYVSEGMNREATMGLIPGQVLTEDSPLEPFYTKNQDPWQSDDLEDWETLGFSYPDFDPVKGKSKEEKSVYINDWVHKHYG
# EXPERIMENT_SUMMARY: Inhibition of mushroom tyrosinase monophenolase reaction (substrate L-tyrosine, dopachrome at 475 nm)
# Type: biochemical
# ASSAY_CONDITIONS: KI Competitive, monophenolase, inhibitor 5.6 µM
PARAMETER_MEASURED: Ki (nM)
Value expressed in nM; do not type the unit.

## Input # Ki lookup, item COc1cc(/C=C/C(=O)c2ccc(O)cc2O)ccc1O [Homobutein]
## Output 2940
